Biological target: human Nav 1.7 channels stably expressed in HEK 293 cells (Homo sapiens)
Sequence (Q15858 whole entry): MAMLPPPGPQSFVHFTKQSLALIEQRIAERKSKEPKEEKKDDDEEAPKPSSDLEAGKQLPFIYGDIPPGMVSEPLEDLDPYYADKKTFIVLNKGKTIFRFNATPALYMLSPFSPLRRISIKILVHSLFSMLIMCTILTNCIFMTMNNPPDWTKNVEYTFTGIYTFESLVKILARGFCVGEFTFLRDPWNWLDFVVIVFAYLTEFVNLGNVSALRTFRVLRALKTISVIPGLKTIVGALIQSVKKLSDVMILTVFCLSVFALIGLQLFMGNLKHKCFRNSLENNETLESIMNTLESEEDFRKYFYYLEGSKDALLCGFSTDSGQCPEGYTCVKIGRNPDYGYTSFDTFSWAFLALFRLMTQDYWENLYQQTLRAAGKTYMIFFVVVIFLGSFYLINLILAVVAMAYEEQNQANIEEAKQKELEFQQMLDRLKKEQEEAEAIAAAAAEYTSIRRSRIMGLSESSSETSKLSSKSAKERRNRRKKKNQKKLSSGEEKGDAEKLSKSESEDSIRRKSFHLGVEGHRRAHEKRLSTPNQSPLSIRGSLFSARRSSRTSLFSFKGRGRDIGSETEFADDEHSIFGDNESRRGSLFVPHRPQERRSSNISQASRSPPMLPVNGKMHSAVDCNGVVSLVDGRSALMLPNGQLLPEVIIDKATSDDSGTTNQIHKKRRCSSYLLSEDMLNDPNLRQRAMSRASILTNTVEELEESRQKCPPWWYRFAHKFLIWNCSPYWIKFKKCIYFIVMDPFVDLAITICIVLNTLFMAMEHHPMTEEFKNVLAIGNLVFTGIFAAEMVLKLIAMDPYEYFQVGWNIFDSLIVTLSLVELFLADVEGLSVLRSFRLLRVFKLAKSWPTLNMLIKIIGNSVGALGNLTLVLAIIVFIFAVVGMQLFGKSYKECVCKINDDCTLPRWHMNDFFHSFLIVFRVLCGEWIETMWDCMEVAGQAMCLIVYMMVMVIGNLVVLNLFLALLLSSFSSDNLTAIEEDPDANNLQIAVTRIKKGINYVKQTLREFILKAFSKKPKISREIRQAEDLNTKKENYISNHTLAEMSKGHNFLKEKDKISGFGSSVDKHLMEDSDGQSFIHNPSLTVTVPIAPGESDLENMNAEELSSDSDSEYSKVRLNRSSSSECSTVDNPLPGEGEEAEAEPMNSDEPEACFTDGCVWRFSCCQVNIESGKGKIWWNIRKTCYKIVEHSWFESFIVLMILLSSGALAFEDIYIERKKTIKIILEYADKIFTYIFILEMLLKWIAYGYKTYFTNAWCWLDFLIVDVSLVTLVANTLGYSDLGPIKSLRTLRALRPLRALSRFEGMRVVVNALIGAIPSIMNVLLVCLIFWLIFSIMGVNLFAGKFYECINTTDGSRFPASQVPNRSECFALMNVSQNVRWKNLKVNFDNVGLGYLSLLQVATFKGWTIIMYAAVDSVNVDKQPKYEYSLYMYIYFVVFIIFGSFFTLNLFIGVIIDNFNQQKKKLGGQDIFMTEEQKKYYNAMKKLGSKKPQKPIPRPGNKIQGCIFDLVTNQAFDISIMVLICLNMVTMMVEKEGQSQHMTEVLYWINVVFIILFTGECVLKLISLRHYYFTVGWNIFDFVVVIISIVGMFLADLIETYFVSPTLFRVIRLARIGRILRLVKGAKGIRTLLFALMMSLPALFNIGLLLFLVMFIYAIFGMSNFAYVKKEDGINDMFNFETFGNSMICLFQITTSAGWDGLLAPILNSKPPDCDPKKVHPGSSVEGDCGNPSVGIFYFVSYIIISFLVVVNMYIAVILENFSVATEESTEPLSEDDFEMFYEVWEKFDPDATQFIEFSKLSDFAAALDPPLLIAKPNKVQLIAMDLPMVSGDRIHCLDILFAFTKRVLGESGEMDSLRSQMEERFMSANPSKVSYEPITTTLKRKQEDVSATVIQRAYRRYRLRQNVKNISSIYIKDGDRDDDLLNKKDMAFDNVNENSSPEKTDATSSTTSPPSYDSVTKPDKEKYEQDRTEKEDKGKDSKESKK
Assay: IonWorks Quattro automated patch-clamp, inactivated state block of Nav 1.7
Conditions: double-pulse protocol, HEK 293 cells held at -100 mV, read-out: potency for the Nav 1.7 sodium ion channel (IC50, IonWorks)
pIC50: −log10 of the molar value.
Recorded pIC50 values for a group of compounds are listed next.
Outcome measure: pIC50

>>> reported_measurement("C[C@H](CNC1CCOCC1)NCCCCNc1cc(F)c(S(=O)(=O)Nc2nccs2)cc1Cl [Ex 1-26]")
7.52
>>> reported_measurement("O=S(=O)(Nc1nccs1)c1cc(Cl)c(NC[C@H]2C[C@@H]3CN(C[C@@H]4CCCN4)C[C@@H]3C2)cc1F [Ex 6-8]")
7.41
>>> reported_measurement("NC1CCN(CCCCNc2cc(F)c(S(=O)(=O)Nc3nccs3)cc2Cl)CC1 [Ex 1-49]")
7.48
>>> reported_measurement("NCC1CN(CCCCNc2cc(F)c(S(=O)(=O)Nc3nccs3)cc2Cl)C1 [Ex 1-51]")
7.82
>>> reported_measurement("O=S(=O)(Nc1nccs1)c1ccc(NCCCCNC[C@@H]2CCCN2)c(Cl)c1 [Ex 7-12]")
7.57
>>> reported_measurement("O=S(=O)(Nc1nccs1)c1cc(Cl)c(NCCCCN2CCC3CNCC3C2)cc1F (stereo not shown) [Ex 1-48]")
7.64
>>> reported_measurement("O=S(=O)(Nc1nccs1)c1ccc(NCCCCNC[C@@H]2CCCN2)c(C(F)(F)F)c1 [Ex 7-04]")
7.39
>>> reported_measurement("NC[C@H]1CCCN1CCCCNc1cc(F)c(S(=O)(=O)Nc2nccs2)cc1Cl [Ex 1-41]")
7.32
>>> reported_measurement("O=S(=O)(Nc1nccs1)c1cc(Cl)c(NCCCCN[C@H]2CN[C@H](c3ccccc3)C2)cc1F [Ex 1-8]")
7.96
>>> reported_measurement("NCC(NCCCCNc1cc(F)c(S(=O)(=O)Nc2nccs2)cc1Cl)c1ccccc1 (stereo not shown) [Ex 1-32]")
7.80
>>> reported_measurement("O=S(=O)(Nc1nccs1)c1cc(Cl)c(NCC(CCNC[C@@H]2CCCN2)c2ccccc2)cc1F (stereo partly shown) [Ex 10-3]")
7.11
>>> reported_measurement("O=S(=O)(Nc1nccs1)c1cc(Cl)c(NCCCCNC2C[C@@H]3CN[C@H]2C3)cc1F (stereo partly shown) [Ex 16-42]")
7.36
>>> reported_measurement("COc1cccc(CC2(CNCCCCNc3cc(F)c(S(=O)(=O)Nc4nccs4)cc3Cl)CCCN2)c1 (stereo not shown) [Ex 1-34]")
7.19

This collection of values is drawn from patent US10968210B2.
